Readings of melting point for the listed compounds

Compound: CCOC(C)OCC(C)C1CCC2C3C=CC4=CC(=O)C5OC5C4(C)C3CCC12C (stereo not drawn)
melting point: 91 to 93 °C
--
Compound: C=CCOC(=O)C(C#N)=C1Nc2ccccc2O1
melting point: 181 to 183 °C
--
Compound: C=CCc1c(O)c(C)cc2ccc(=O)oc12
melting point: 161 to 162 °C
--
Compound: CCCCS(=O)(=O)NC(CNC(=O)c1cccc(C(=O)C2CCC3(CCNCC3)CC2)c1)C(=O)O (stereo not drawn)
melting point: 155 to 157 °C
--
Compound: COc1ccnc(CCc2nc3cc(-c4ccc(S(=O)(=O)N5CCNC(=O)CC5)cc4)cnc3[nH]2)c1
melting point: 230 to 232 °C
--
Compound: CC1CCN=C2C(=O)c3cc(Br)ccc3N21 (stereo not drawn)
melting point: 127 to 129 °C
--
Compound: Cc1oc(-c2ccccc2)nc1COc1cccc(CSc2ccc(CC(=O)O)cc2Cl)c1
melting point: 150 to 151 °C
--
Compound: Cc1ncnc(O)c1Cl
melting point: 250 to 251 °C
--
Compound: CCC(C)Nc1c([N+](=O)[O-])cc(C(F)(F)F)c(C)c1[N+](=O)[O-] (stereo not drawn)
melting point: 38 to 39 °C
--
Compound: O=C1N(CC2COCCO2)c2ccccc2C12COc1cc3c(cc12)OCCCO3 (stereo not drawn)
melting point: 137 to 139 °C
--
Compound: Cc1cc(C(=O)NCO)ncc1C(c1c(F)ccc(F)c1F)S(=O)(=O)CCC(F)(F)C(F)(F)F (stereo not drawn)
melting point: 126 to 128 °C
--
Compound: O=[N+]([O-])c1oc2cc3c(cc2c1-c1ccccc1)OCO3
melting point: 180 to 183 °C
--
Compound: COC(COc1ccc(C(=O)NCC(NC(=O)OCc2ccccc2)C(=O)OC(C)(C)C)cc1)OC (stereo not drawn)
melting point: 115 °C
--
Compound: CCOC(=O)CCCCn1c(=O)[nH]c2ccc(F)cc2c1=O
melting point: 131 to 132 °C
--
Compound: Cc1nc(N2CCN(C)CC2)nc(N)c1-c1cccc(Br)c1
melting point: 120 to 122 °C
--
Compound: COc1nc2ncnc(NCc3ccco3)c2[nH]1
melting point: 196 to 198 °C
--
Compound: O=C(Nc1ccc2ccc(Cl)nc2n1)c1ccc2c(c1)OCO2
melting point: 256 °C
--
Compound: CC=CCOc1cc(OC)cc(C(=O)OC)c1
melting point: 140 to 141 °C
--
Compound: CN1CCN(C2=Nc3cc(Cl)ccc3Cn3nnnc32)CC1
melting point: 228 to 230 °C
--
Compound: CN1CC=C(c2c[nH]c3ccc(NS(C)(=O)=O)cc23)CC1
melting point: 210 to 214 °C
--
Compound: C=CC(=O)N1CCc2cc(OC)c(OC)cc2C12CCC(C(=O)OCC)(C(=O)OCC)CC2
melting point: 131 to 134 °C
--
Compound: O=C(Nc1cccnc1)N1CCN(c2nccc(-c3cccc(F)c3)n2)CC1
melting point: 210 to 211 °C
--
Compound: CN(C)c1cccc([N+](=O)[O-])c1C(=O)NC1CCN(C(c2ccccc2)c2ccccc2)CC1
melting point: 122 °C
--
Compound: CCOc1ccc(F)c(CCN=C(N)Nc2ccc(Br)cn2)c1Cl
melting point: 169 to 172 °C
--
Compound: C#CCOc1cc(-c2ncnc(C(Cl)Cl)c2Cl)c(F)cc1Cl
melting point: 86 to 88 °C
--
Compound: COc1cccc(-c2n[nH]c(-c3ccccc3COC(C)=O)n2)c1
melting point: 83 to 87 °C
--
Compound: NOCc1nnc2n1-c1ccc(Cl)cc1C(c1ccccc1)=NC2
melting point: 183 to 186 °C
--
Compound: Cc1ccccc1CC(=O)Nc1ccc(C(=O)O)c(Cl)c1
melting point: 214 to 218 °C
--
Compound: c1ccc(OCC2CO2)c(Cc2cccc3[nH]ccc23)c1 (stereo not drawn)
melting point: 78 °C
--
Compound: Cc1ccccc1OCc1ccccc1N
melting point: 56 °C
--
Compound: COc1ccc2nc3ccc(C(=O)O)cn3c(=O)c2c1
melting point: 278 to 290 °C
--
Compound: COc1ccc(C2CN(Cc3ccccc3)Cc3c2ccc(OC)c3Cl)cc1OC (stereo not drawn)
melting point: 88 to 91 °C
--
Compound: CC(C)(C)NS(=O)(=O)c1ccccc1-c1ccc(CBr)c(F)c1
melting point: 138 to 140 °C
